- protocol_text: Solubility at pH 7.4
- Assay type: physicochemical
- condition_set: buffer
measurement_label: solubility (µg/mL)

Below are worked cases with known answers.
O=C(Nc1ccncc1)Nc1ccc(-c2nc(N3CCOCC3)c3ccn(CCN4CCCC4)c3n2)cc1 : 28
O=C(Nc1ccncc1)Nc1ccc(-c2nc(N3CCOCC3)c3ccn(CCO)c3n2)cc1 : 1
CN(C)CCn1ccc2c(N3CCOCC3)nc(-c3ccc(NC(=O)Nc4ccccn4)cc3)nc21 : 21
CN(C)CCn1ccc2c(N3CCOCC3)nc(-c3ccc(NC(=O)Nc4cccnc4)cc3)nc21 : 52

(1) O=C(Nc1ccncc1)Nc1ccc(-c2nc(N3CCOCC3)c3ccn(CCN4CCCCC4)c3n2)cc1
(2) CCn1ccc2c(N3CCOCC3)nc(-c3ccc(NC(=O)Nc4ccc(C(=O)NCCN(C)C)cc4)cc3)nc21
Problem: Returns: the argument ( 1 or 2 ) having the larger solubility. Output the label that corresponds to your choice.
Result: 1

###

- protocol_text: in vitro
- condition_set: rat, liver microsomes
measurement_label: half-life (min)

O=C(Nc1ccncc1)Nc1ccc(-c2nc(N3CCOCC3)c3ccn(CCO)c3n2)cc1 : 22
CN1CCN(C(=O)c2ccc(NC(=O)Nc3ccc(-c4nc(N5CCOCC5)c5ccn(CC(F)(F)F)c5n4)cc3)cc2)CC1 : 27
COC(Cn1ccc2c(N3CCOCC3)nc(-c3ccc(NC(=O)Nc4ccncc4)cc3)nc21)OC : 4

(1) CN(C)CCn1ccc2c(N3CCOCC3)nc(-c3ccc(NC(=O)Nc4ccccn4)cc3)nc21
(2) CN(C)CCn1ccc2c(N3CCOCC3)nc(-c3ccc(NC(=O)Nc4cccnc4)cc3)nc21
(3) CCn1ccc2c(N3CCOCC3)nc(-c3ccc(NC(=O)Nc4ccc(C(=O)N5CCN(C)CC5)cc4)cc3)nc21
Problem: Sort (3 molecules) by half-life: min first. To answer, write out the labels according to the requested order.
Result: 1, 2, 3
(1: 5 min, 2: 9 min, 3: 15 min)

(a) CCNC(=O)Nc1ccc(-c2nc(N3CCOCC3)c3ccn(CCN(C)C)c3n2)cc1
(b) O=C(Nc1ccncc1)Nc1ccc(-c2nc(N3CCOCC3)c3ccn(CCN4CCCCC4)c3n2)cc1
Problem: Sorting by half-life in descending order, would a or b appear first? Identify your selection by its label.
Result: a

(A) O=C(Nc1ccncc1)Nc1ccc(-c2nc(N3CCOCC3)c3ccn(CCN4CCNCC4)c3n2)cc1
(B) CN(C)CCNCCn1ccc2c(N3CCOCC3)nc(-c3ccc(NC(=O)Nc4ccncc4)cc3)nc21
Problem: Of the pair A and B , name the member with the lesser recorded half-life. Pick one and reply with its label.
Result: A

(1) CN1CCN(CCn2ccc3c(N4CCOCC4)nc(-c4ccc(NC(=O)Nc5ccncc5)cc4)nc32)CC1
(2) CNC(=O)Nc1ccc(-c2nc(N3CCOCC3)c3ccn(CCN(C)C)c3n2)cc1
Problem: Hi, I'm comparing 1 with 2 and wondering which one has the bigger number for half-life. Any idea? Mark your selection by writing its label.
Result: 2
(2: 9 min, 1: 4 min)

###

- protocol_text: Solubility at pH 7.4
- Assay type: physicochemical
- condition_set: buffer
measurement_label: solubility (µg/mL)

CCn1ccc2c(N3CCOCC3)nc(-c3ccc(NC(=O)Nc4ccc(C(=O)N5CCNCC5)cc4)cc3)nc21 : 1

(a) COC(Cn1ccc2c(N3CCOCC3)nc(-c3ccc(NC(=O)Nc4ccncc4)cc3)nc21)OC
(b) O=C(Nc1ccncc1)Nc1ccc(-c2nc(N3CCOCC3)c3ccn(CC(F)(F)F)c3n2)cc1
Problem: Select one. Lower solubility: a or b Answer by stating the label of the chosen item.
Result: b
(b: 1 µg/mL, a: 2 µg/mL)

###

- tested_system: Serine/threonine-protein kinase mTOR (Homo sapiens)
- protocol_text: Inhibition of mTOR by DELFIA
measurement_label: IC50 (nM)

CCn1ccc2c(N3CCOCC3)nc(-c3ccc(NC(=O)Nc4ccc(C(=O)N5CCN(C)CC5)cc4)cc3)nc21 : 1.4
CN(C)CCN(C)C(=O)c1ccc(NC(=O)Nc2ccc(-c3nc(N4CCOCC4)c4ccn(CC(F)(F)F)c4n3)cc2)cc1 : 0.6
CN1CCN(C(=O)c2ccc(NC(=O)Nc3ccc(-c4nc(N5CCOCC5)c5ccn(CC(F)(F)F)c5n4)cc3)cc2)CC1 : 1.7
CN(C)CCNC(=O)c1ccc(NC(=O)Nc2ccc(-c3nc(N4CCOCC4)c4ccn(CC(F)(F)F)c4n3)cc2)cc1 : 0.4

(a) CCn1ccc2c(N3CCOCC3)nc(-c3ccc(NC(=O)Nc4ccc(C(=O)NCCN(C)C)cc4)cc3)nc21
(b) CN(C)CCn1ccc2c(N3CCOCC3)nc(-c3ccc(NC(=O)Nc4ccc(F)cc4)cc3)nc21
(c) CCn1ccc2c(N3CCOCC3)nc(-c3ccc(NC(=O)Nc4ccc(C(=O)N5CCNCC5)cc4)cc3)nc21
(d) CN(C)CCn1ccc2c(N3CCOCC3)nc(-c3ccc(NC(=O)Nc4cccnc4)cc3)nc21
Problem: Ascending by IC50, please: list the compounds accordingly. To answer, write out the labels according to the requested order.
Result: a, c, d, b

###

- protocol_text: in vitro
- condition_set: rat, liver microsomes
measurement_label: half-life (min)

OCc1cccc(-c2nc(N3CCOCC3)c3ncn(C4CCN(Cc5ccccc5)CC4)c3n2)c1 : 2

(P) O=C(Nc1ccncc1)Nc1ccc(-c2nc(N3CCOCC3)c3ccn(CCN4CCCC4)c3n2)cc1
(Q) CN(C)CCN(C)C(=O)c1ccc(NC(=O)Nc2ccc(-c3nc(N4CCOCC4)c4ccn(CC(F)(F)F)c4n3)cc2)cc1
(R) CN(C)CCn1ccc2c(N3CCOCC3)nc(-c3ccc(NC(=O)Nc4ccncc4)cc3)nc21
Problem: Task field, ranking: reported half-life, descending order. Quick reminder: the answer is the labels in the order asked.
Result: Q, P, R
(Q: 29 min, P: 4 min, R: 2 min)

###

- protocol_text: Solubility at pH 3
- Format: physicochemical
- condition_set: buffer
measurement_label: solubility

# example entries with known answers
CN1CCN(C(=O)c2ccc(NC(=O)Nc3ccc(-c4nc(N5CCOCC5)c5ccn(CC(F)(F)F)c5n4)cc3)cc2)CC1 : > 100 µg/mL
CN(C)CCNC(=O)c1ccc(NC(=O)Nc2ccc(-c3nc(N4CCOCC4)c4ccn(CC(F)(F)F)c4n3)cc2)cc1 : 68 µg/mL

Shift focus to the following entry.
Problem: For the compound shown here, CN(C)CCN(C)C(=O)c1ccc(NC(=O)Nc2ccc(-c3nc(N4CCOCC4)c4ccn(CC(F)(F)F)c4n3)cc2)cc1 , give the reported solubility.
Result: > 100 µg/mL

###

- protocol_text: Solubility at pH 7.4
- Assay type: physicochemical
- condition_set: buffer
measurement_label: solubility

Problem: # lookup: solubility of O=C(Nc1ccncc1)Nc1ccc(-c2nc(N3CCOCC3)c3ccn(CCN4CCNCC4)c3n2)cc1
Result: > 100 µg/mL

Problem: Entry under review: CNC(=O)Nc1ccc(-c2nc(N3CCOCC3)c3ccn(CCN(C)C)c3n2)cc1 . Reported solubility?
Result: > 100 µg/mL

Problem: Recorded solubility for CN1CCN(CCn2ccc3c(N4CCOCC4)nc(-c4ccc(NC(=O)Nc5ccncc5)cc4)nc32)CC1 , please?
Result: > 100 µg/mL

###

solubility reference
- protocol_text: Solubility at pH 7.4
- Format: physicochemical
- condition_set: buffer

In the examples that follow, each entry is paired with its recorded solubility.
CCNC(=O)Nc1ccc(-c2nc(N3CCOCC3)c3ccn(CCN(C)C)c3n2)cc1 : > 0.1 mg/mL
CN(C)CCn1ccc2c(N3CCOCC3)nc(-c3cccc(CO)c3)nc21 : > 0.1 mg/mL

Problem: // solubility lookup, key: CN(C)CCn1ccc2c(N3CCOCC3)nc(-c3cccc(O)c3)nc21
Result: > 0.1 mg/mL

Origin of values: ChEMBL document CHEMBL1156188
